Sourced from ChEMBL document CHEMBL5500351

Measured IC50, listed per entry.
Target Desc: Dipeptidyl peptidase 4 (Homo sapiens)
Sequence (P27487 whole entry): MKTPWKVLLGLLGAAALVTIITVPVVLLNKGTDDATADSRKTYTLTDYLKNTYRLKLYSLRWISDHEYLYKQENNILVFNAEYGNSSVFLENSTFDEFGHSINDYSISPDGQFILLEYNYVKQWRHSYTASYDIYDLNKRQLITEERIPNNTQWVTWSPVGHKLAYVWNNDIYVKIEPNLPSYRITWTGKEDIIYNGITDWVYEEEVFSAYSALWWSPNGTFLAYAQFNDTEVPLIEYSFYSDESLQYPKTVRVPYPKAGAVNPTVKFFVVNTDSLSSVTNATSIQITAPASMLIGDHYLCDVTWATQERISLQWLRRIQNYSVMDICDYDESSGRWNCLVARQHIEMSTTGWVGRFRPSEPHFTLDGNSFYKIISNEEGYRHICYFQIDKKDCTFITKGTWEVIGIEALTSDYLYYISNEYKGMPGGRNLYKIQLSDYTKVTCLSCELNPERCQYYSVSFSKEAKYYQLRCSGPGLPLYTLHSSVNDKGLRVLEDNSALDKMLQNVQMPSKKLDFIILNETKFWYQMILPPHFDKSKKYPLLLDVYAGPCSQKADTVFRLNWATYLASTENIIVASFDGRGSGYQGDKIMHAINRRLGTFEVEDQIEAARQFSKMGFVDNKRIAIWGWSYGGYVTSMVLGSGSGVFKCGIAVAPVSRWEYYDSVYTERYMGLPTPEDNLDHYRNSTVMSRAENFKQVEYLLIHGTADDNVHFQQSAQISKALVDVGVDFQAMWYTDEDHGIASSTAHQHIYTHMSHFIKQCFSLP
Assay Procedure: Inhibition of human DPP4
Assay Readout: IC50

O=C(CCCCC1SCC2NC(=O)NC21)NCCOCCOC(=O)NC12CC3CC(CC(NCC(=O)N4Cc5cc(F)c(F)cc5C4)(C3)C1)C2 (stereo unspecified) = > 10 µM
O=C(CCCCC1SCC2NC(=O)NC21)NCCOCCNC(=O)NC12CC3CC(CC(NCC(=O)N4Cc5ccc(F)cc5C4)(C3)C1)C2 (stereo unspecified) = > 10 µM
O=C(CCCCC1SCC2NC(=O)NC21)NCCOCCOC(=O)NC12CC3CC(CC(NCC(=O)N4Cc5ccc(F)cc5C4)(C3)C1)C2 (stereo unspecified) = > 10 µM
O=C(NC12CC3CC(CC(NCC(=O)N4Cc5ccc(F)cc5C4)(C3)C1)C2)OCCOCCNc1ccc([N+](=O)[O-])c2nonc12 = 0.44 µM
CN(C)c1cccc2c(S(=O)(=O)NCCOCCOC(=O)NC34CC5CC(CC(NCC(=O)N6Cc7cc(F)c(F)cc7C6)(C5)C3)C4)cccc12 = > 10 µM
O=C(CCCCC1SCC2NC(=O)NC21)NCCOCCOCCNC(=O)NC12CC3CC(CC(NCC(=O)N4Cc5cc(F)c(F)cc5C4)(C3)C1)C2 (stereo unspecified) = > 10 µM
